All values here come from PubChem BioAssay (NCI).

- Test system: SK-MEL-2 melanoma
- ASSAY_METHOD_TEXT: NCI tumour cell line growth inhibition, 48 h
MEASURE: TGI

Query: Given the molecule CCCCNc1nc2ccccc2c2c1ncn2CC(C)C , what is its reported TGI?
Reply: > 100 µM

Query: Check Cc1sc2[nH]c(=O)oc(=O)c2c1C too.
Reply: > 100 µM

Query: Follow-up entry: O=c1ccn(CC2(CO)CCCC2)c(=O)[nH]1
Reply: > 100 µM

Query: Same lookup for Cc1cc([N+](=O)[O-])ccc1Sc1c2ccccc2nc2cc(Cl)ccc12 , please.
Reply: > 100 µM

Query: # repeat for CN(C)c1ccc(/C=C/c2ccnc3c(O)cccc23)cc1
Reply: 11 µM

Query: Consider next the molecule COc1ccc(OC(C)=O)c2c1CCC=CC2=O in the same way.
Reply: 33.7 µM

Query: O=C1/C(=N\O)c2ccccc2S1(=O)=O , same question.
Reply: > 100 µM
